B1: EHEE_rd3_0053 (parent)
chain: TYTFKVDNKDQAKKAAKWAKKLGLSFQIEKHGDTFKITVQ

variants of: B1; assay: folding stability dG (cDNA display proteolysis); higher = more stable; settings: PBS, room temperature
measure_name: folding stability dG (kcal/mol)
Numeric only. Scale: kcal/mol

Example results:
INSERT INTO assay_data (variant_key, measure_unit, test_value) VALUES
  ('K30T', 'kcal/mol', 2.04),
  ('I28W', 'kcal/mol', 1.53),
  ('K21R', 'kcal/mol', 2.49);

Which folding stability dG value belongs to `D10N` ?
2.6

Which folding stability dG value belongs to `H31I` ?
2.89

Which folding stability dG value belongs to `K14G` ?
1.53
